# Tested system: Estrogen receptor (Homo sapiens) (UniProt P03372)
# Sequence (P03372 whole entry, the tested form may be a part): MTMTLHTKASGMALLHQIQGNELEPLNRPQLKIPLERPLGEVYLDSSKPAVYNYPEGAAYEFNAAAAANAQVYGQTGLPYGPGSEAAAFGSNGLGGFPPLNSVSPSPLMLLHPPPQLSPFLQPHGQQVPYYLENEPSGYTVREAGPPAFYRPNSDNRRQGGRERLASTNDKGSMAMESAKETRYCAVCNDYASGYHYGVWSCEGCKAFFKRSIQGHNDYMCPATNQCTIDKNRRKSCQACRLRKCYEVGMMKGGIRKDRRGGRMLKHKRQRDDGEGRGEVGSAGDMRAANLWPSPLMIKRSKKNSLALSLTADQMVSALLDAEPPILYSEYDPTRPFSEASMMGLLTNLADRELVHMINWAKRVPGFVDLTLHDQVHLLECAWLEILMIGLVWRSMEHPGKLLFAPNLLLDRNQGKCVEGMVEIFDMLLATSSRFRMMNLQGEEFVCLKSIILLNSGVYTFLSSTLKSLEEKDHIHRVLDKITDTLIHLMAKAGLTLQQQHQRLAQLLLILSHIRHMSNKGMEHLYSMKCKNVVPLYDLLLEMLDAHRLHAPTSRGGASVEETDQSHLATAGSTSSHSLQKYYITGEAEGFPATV
# Test protocol: Binding affinity to human ERalpha LBD expressed in Escherichia coli BL21(DE3) after 2 hrs by fluorescence tracer coumestrol based competitive fluorometric binding assay relative to 17beta-estradiol
I'd appreciate it if you could label each record using RBA and these ranges: 0: < 2%; 1: ≥ 2% and < 5%; 2: ≥ 5%

In [3]: df
Out[3]:
                             chemical_string  assigned_class
 0  Oc1ccc(-c2ccc(-c3ccc(OCCN4CCCCC4)cc3F)[se]2)c(F)c1               2
 1  Cc1cc(O)ccc1-c1ccc(-c2ccc(OCCN3CCCCC3)cc2C)[se]1               0
 2      Cc1cc(O)ccc1-c1c[se]cc1-c1ccc(O)cc1C               0
 3      Oc1ccc(-c2ccc(-c3ccc(O)cc3)[se]2)cc1               0
 4  Cc1cc(O)ccc1-c1cc(-c2ccc(OCCN3CCCC3)cc2)c(-c2ccc(O)cc2C)[se]1               2
 5  Cc1cc(-c2c[se]cc2-c2ccc(OCCN3CCCCC3)c(C)c2)ccc1O               0
 6        Oc1ccc(-c2c[se]cc2-c2ccc(O)cc2)cc1               0
 7  Oc1ccc(-c2c[se]cc2-c2ccc(OCCN3CCCC3)cc2)cc1               1
 8  Oc1ccc(-c2cc(-c3ccc(OCCN4CCCC4)cc3)c(-c3ccc(O)cc3)[se]2)cc1               1
 9  Oc1ccc(-c2c[se]cc2-c2ccc(OCCN3CCCCC3)c(F)c2)cc1F               1
10    Cc1cc(O)ccc1-c1ccc(-c2ccc(O)cc2C)[se]1               2
11  Oc1ccc(-c2c[se]cc2-c2ccc(OCCN3CCCCC3)cc2)cc1               2
12  Cc1cc(O)ccc1-c1c[se]cc1-c1ccc(OCCN2CCCCC2)cc1C               0
13  Oc1ccc(-c2c[se]cc2-c2ccc(OCCN3CCCCC3)cc2Cl)c(Cl)c1               2
14  Oc1ccc(-c2ccc(-c3ccc(OCCN4CCCCC4)cc3Cl)[se]2)c(Cl)c1               0
15  Oc1ccc(-c2ccc(-c3ccc(O)cc3Cl)[se]2)c(Cl)c1               2
16    Cc1cc(-c2c[se]cc2-c2ccc(O)c(C)c2)ccc1O               0
17  Oc1ccc(-c2ccc(-c3ccc(OCCN4CCCC4)cc3)[se]2)cc1               2
18  Oc1ccc(-c2cc(-c3ccc(OCCN4CCCCC4)cc3)c(-c3ccc(O)cc3)[se]2)cc1               1
19  Oc1ccc(-c2ccc(-c3ccc(O)cc3F)[se]2)c(F)c1               2
20  Oc1ccc(-c2ccc(-c3ccc(OCCN4CCCC4)cc3F)[se]2)c(F)c1               0
21  Oc1ccc(-c2ccc(-c3ccc(OCCN4CCCC4)cc3Cl)[se]2)c(Cl)c1               1
22  Oc1ccc(-c2c[se]cc2-c2ccc(OCCN3CCCC3)cc2Cl)c(Cl)c1               0
23  Cc1cc(O)ccc1-c1c[se]cc1-c1ccc(OCCN2CCCC2)cc1C               0
24    Oc1ccc(-c2c[se]cc2-c2ccc(O)c(F)c2)cc1F               0
